- test-system: EGFR^DM (T790M/L858R) (Homo sapiens, UniProt P00533, L858R/T790M)
- Sequence (P00533 25-1210 T790M/L858R): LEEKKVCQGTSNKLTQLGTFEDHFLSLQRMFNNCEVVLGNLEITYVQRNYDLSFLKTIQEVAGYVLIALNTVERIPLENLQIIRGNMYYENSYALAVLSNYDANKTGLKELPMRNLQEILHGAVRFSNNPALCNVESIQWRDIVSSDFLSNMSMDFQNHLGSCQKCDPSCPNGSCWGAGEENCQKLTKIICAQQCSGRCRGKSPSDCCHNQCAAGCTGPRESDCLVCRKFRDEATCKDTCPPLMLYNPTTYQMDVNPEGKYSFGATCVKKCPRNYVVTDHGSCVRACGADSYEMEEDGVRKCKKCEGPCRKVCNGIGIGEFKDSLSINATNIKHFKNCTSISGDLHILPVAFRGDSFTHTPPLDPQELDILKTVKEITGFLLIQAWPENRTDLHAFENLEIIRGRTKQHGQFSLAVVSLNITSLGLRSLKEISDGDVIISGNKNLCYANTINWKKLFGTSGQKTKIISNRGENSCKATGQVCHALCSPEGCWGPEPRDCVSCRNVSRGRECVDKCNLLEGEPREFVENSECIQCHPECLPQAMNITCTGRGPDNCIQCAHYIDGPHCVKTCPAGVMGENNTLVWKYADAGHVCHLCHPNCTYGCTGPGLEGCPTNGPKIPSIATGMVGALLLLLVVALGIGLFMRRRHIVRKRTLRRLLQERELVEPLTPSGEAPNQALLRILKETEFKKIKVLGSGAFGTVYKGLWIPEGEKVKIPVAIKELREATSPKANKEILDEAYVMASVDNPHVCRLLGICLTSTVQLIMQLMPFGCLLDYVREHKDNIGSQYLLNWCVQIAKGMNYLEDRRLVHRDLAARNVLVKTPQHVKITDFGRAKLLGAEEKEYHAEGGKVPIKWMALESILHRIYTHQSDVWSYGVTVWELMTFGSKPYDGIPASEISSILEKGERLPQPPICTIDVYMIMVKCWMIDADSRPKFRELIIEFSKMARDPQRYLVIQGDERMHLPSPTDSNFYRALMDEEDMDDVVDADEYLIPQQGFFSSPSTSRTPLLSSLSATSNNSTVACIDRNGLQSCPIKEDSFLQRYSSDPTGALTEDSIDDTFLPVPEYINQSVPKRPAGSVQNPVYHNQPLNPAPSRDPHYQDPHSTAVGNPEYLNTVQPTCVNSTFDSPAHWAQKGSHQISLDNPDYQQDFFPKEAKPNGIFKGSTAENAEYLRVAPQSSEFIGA
- test: EGFR^DM in-house Kinase-Glo assay
- assay-context: cell marked b = IC50 value
endpoint-name: pIC50
pIC50 is defined as minus the log10 of a concentration measured in mol/L.

Record request: pIC50 value, item C=CC(=O)Nc1cccc(-c2c(-c3ccccc3)oc3ncnc(Oc4ccc(NC(=O)C5(C(=O)Nc6ccc(F)cc6)CC5)cc4)c23)c1
7.38

###

- test: In vivo pharmacokinetics study
- assay-context: male, ICR, mouse, plasma; mice, po 10 mg/kg
endpoint-name: Tmax (h)
Lab book: enter the figure in h, no units written.

Return reported Tmax; argument: Cn1cc(-c2oc3ncnc(Oc4ccc(NC(=O)c5cccn(-c6ccc(F)cc6)c5=O)cc4)c3c2-c2cccc(N3CCNCC3)c2)cn1
2.2

###

Each entry below carries its reported pIC50.
Target chain: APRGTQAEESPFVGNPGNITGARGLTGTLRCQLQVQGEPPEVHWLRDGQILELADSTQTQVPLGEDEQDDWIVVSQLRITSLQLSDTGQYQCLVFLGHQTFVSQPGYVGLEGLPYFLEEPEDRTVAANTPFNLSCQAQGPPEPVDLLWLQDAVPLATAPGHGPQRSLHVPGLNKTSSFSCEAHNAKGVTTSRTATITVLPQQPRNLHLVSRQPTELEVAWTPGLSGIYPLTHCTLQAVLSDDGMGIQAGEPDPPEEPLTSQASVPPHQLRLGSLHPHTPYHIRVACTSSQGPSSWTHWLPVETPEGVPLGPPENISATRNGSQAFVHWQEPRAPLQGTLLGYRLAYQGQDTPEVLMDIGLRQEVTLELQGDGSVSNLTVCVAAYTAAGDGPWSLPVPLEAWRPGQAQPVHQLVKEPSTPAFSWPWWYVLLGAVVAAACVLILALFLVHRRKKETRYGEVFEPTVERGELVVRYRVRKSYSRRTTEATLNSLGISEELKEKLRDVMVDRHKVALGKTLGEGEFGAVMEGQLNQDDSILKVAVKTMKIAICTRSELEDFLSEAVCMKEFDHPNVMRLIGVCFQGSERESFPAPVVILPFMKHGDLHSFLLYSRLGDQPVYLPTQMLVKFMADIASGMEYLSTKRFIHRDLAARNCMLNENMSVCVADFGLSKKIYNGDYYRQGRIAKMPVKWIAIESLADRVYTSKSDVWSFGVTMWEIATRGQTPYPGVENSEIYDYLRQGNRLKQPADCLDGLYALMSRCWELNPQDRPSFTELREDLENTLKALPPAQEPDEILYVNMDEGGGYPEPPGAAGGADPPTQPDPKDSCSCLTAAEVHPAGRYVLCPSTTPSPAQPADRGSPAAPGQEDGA
// returns pIC50 (minus log10 of molar concentration), number only

test-smiles: Cn1cc(-c2oc3ncnc(Oc4ccc(NC(=O)c5cccn(-c6ccc(F)cc6)c5=O)cc4)c3c2-c2cccc(N3CCNCC3)c2)cn1
pIC50: 7.92

Continue with the compound presented below.
Given the compound Cn1cc(-c2oc3ncnc(Oc4ccc(NC(=O)c5cccn(-c6ccc(F)cc6)c5=O)cc4)c3c2-c2ccc(N3CCNCC3)cc2)cn1 , what is its reported pIC50?
8.10

###

- test: In vivo pharmacokinetics study
- assay-context: male, ICR, mouse, plasma; mice, po 3 mg/kg; read-out: po T1/2 (converted)
endpoint-name: half-life at 24 h (h)
Record the value in h, omitting the unit from your answer.

Item Cn1cc(-c2oc3ncnc(Oc4ccc(NC(=O)c5cccn(-c6ccc(F)cc6)c5=O)cc4)c3c2-c2cccc(N)c2)cn1 [Compound 22] has what recorded half-life at 24 h?
3.4

###

- test: In vivo pharmacokinetics study
- assay-context: male, ICR, mouse, plasma; mice, po 10 mg/kg
endpoint-name: Tmax at 24 h (h)
Form entry: value (h) — number only.

# annotated cases, reported Tmax at 24 h shown
test-smiles: CNc1cccc(-c2c(-c3cnn(C)c3)oc3ncnc(Oc4ccc(NC(=O)c5cccn(-c6ccc(F)cc6)c5=O)cc4)c23)c1
unit-info: h
assay-value: 24

test-smiles: CN(C)Cc1ccc(-c2c(-c3cnn(C)c3)oc3ncnc(Oc4ccc(NC(=O)c5cccn(-c6ccc(F)cc6)c5=O)cc4)c23)cc1
unit-info: h
assay-value: 2

test-smiles: CN(C)Cc1cccc(-c2c(-c3cnn(C)c3)oc3ncnc(Oc4ccc(NC(=O)c5cccn(-c6ccc(F)cc6)c5=O)cc4)c23)c1
unit-info: h
assay-value: 5.3

Which Tmax at 24 h value belongs to CN1CCN(c2cccc(-c3c(-c4cnn(C)c4)oc4ncnc(Oc5ccc(NC(=O)c6cccn(-c7ccc(F)cc7)c6=O)cc5)c34)c2)CC1 ?
2.7

###

- test: In vivo pharmacokinetics study
- assay-context: male, ICR, mouse, plasma; mice, iv 3 mg/kg; read-out: iv Vss
endpoint-name: Vd at 24 h (L/kg)
Give your result in L/kg as a bare value.

GET /values?readout=Vd at 24 h&item= Cn1cc(-c2oc3ncnc(Oc4ccc(NC(=O)c5cccn(-c6ccc(F)cc6)c5=O)cc4)c3c2-c2cccc(N)c2)cn1 [Compound 22]
1.2

###

- test: In vivo pharmacokinetics study
- assay-context: male, ICR, mouse, plasma; mice, po 10 mg/kg; read-out: po T1/2 (converted)
endpoint-name: half-life at 24 h (h)
Give the value, in units of h, as a plain number.

compound: CN1CCN(c2cccc(-c3c(-c4cnn(C)c4)oc4ncnc(Oc5ccc(NC(=O)c6cccn(-c7ccc(F)cc7)c6=O)cc5)c34)c2)CC1 [Compound 35]
unit-info: h
half-life at 24 h: 4.3
--
compound: CN(C)Cc1cccc(-c2c(-c3cnn(C)c3)oc3ncnc(Oc4ccc(NC(=O)c5cccn(-c6ccc(F)cc6)c5=O)cc4)c23)c1 [Compound 33]
unit-info: h
half-life at 24 h: 5.2
--
compound: CN(C)Cc1ccc(-c2c(-c3cnn(C)c3)oc3ncnc(Oc4ccc(NC(=O)c5cccn(-c6ccc(F)cc6)c5=O)cc4)c23)cc1 [Compound 39]
unit-info: h
half-life at 24 h: 2.4

Next item in the queue.
Looking for the measured half-life at 24 h of Cn1cc(-c2oc3ncnc(Oc4ccc(NC(=O)c5cccn(-c6ccc(F)cc6)c5=O)cc4)c3c2-c2cccc(N3CCNCC3)c2)cn1 [Compound 34] , can you help?
4.7

###

- test: In vivo pharmacokinetics study
- assay-context: male, ICR, mouse, plasma; mice, iv 2 mg/kg; read-out: iv CL
Sorting guide: entries reporting clearance at 24 h beneath 40 mL/min/kg go in the YES pile, the rest go in the NO pile.

test-smiles: Cn1cc(-c2oc3ncnc(Oc4ccc(NC(=O)c5cccn(-c6ccc(F)cc6)c5=O)cc4)c3c2-c2cccc(CN)c2)cn1
discrete-label: YES

For CC(=O)Nc1cccc(-c2c(-c3cnn(C)c3)oc3ncnc(Oc4ccc(NC(=O)c5cccn(-c6ccc(F)cc6)c5=O)cc4)c23)c1 , is the recorded clearance at 24 h below the cut-off of 40 mL/min/kg?
YES

I'd appreciate it if you could check whether Cn1cc(-c2oc3ncnc(Oc4ccc(NC(=O)c5cccn(-c6ccc(F)cc6)c5=O)cc4)c3c2-c2cccc(N3CCNCC3)c2)cn1 has clearance at 24 h smaller than 40 mL/min/kg.
NO

clearance at 24 h strictly < 40 mL/min/kg for this compound? CN(C)Cc1ccc(-c2c(-c3cnn(C)c3)oc3ncnc(Oc4ccc(NC(=O)c5cccn(-c6ccc(F)cc6)c5=O)cc4)c23)cc1
NO

Determine whether this compound shows clearance at 24 h lower than 40 mL/min/kg (ties excluded): CNc1cccc(-c2c(-c3cnn(C)c3)oc3ncnc(Oc4ccc(NC(=O)c5cccn(-c6ccc(F)cc6)c5=O)cc4)c23)c1
YES

Does this compound meet the criterion clearance at 24 h < 40 mL/min/kg? CN1CCN(c2cccc(-c3c(-c4cnn(C)c4)oc4ncnc(Oc5ccc(NC(=O)c6cccn(-c7ccc(F)cc7)c6=O)cc5)c34)c2)CC1
NO

###

- test: In vivo pharmacokinetics study
- assay-context: mice, po 10 mg/kg, dose-normalized
- Procedure: The animal studies were performed according to NHRI institutional animal care and committee-approved procedures. Male ICR mice (25–35 g) were obtained from BioLASCO (Taiwan Co., Ltd., Ilan, Taiwan). […] All samples were analyzed for the parent drug by LC-MS/MS. Plasma concentration data were analyzed with a noncompartmental method.
endpoint-name: po DNAUC(0–inf) (ng·h/mL)
The figure you give is taken to be in ng·h/mL; do not add the unit.

Value lookup for po DNAUC(0–inf); key = Cn1cc(-c2oc3ncnc(Oc4ccc(NC(=O)c5cccn(-c6ccc(F)cc6)c5=O)cc4)c3c2-c2cccc(N3CCNCC3)c2)cn1
2.6

Entry CN1CCN(c2cccc(-c3c(-c4cnn(C)c4)oc4ncnc(Oc5ccc(NC(=O)c6cccn(-c7ccc(F)cc7)c6=O)cc5)c34)c2)CC1 has what po DNAUC(0–inf)?
32.8

GET /values?readout=po DNAUC(0–inf)&item= CN(C)Cc1cccc(-c2c(-c3cnn(C)c3)oc3ncnc(Oc4ccc(NC(=O)c5cccn(-c6ccc(F)cc6)c5=O)cc4)c23)c1
858.8

Given the entry CNc1cccc(-c2c(-c3cnn(C)c3)oc3ncnc(Oc4ccc(NC(=O)c5cccn(-c6ccc(F)cc6)c5=O)cc4)c23)c1 , report its measured po DNAUC(0–inf).
15.3

Which po DNAUC(0–inf) reading was recorded for the compound CN(C)Cc1ccc(-c2c(-c3cnn(C)c3)oc3ncnc(Oc4ccc(NC(=O)c5cccn(-c6ccc(F)cc6)c5=O)cc4)c23)cc1 ?
54.4
